Test: Deoxyribose degradation as a measure of hydroxyl radical formation
Assay type: biochemical
Details: 75 μM test compound; controls < 0.1
Some compounds, each annotated with its measured DD (deoxyribose degradation, malondialdehyde released).

Look over these answered cases.
1) O=C1c2c(O)cccc2Cc2ccc(C(CCc3ccccc3)C(=O)O)c(O)c21 (centres unmarked)	2.47 ± 0.16 μmol of MDA/mmol
2) O=C(O)CCCCc1ccc2c(c1O)C(=O)c1c(O)cccc1C2	2.62 ± 0.41 μmol of MDA/mmol
3) CN(O)C(=O)C(Cc1ccccc1)c1ccc2c(c1O)C(=O)c1c(O)cccc1C2 (centres unmarked)	1.68 ± 0.13 μmol of MDA/mmol

QUERY: I have this compound here, O=C(O)CCCc1ccc2c(c1O)C(=O)c1c(O)cccc1C2 [IIIA, reference compound] , and I need its recorded DD (deoxyribose degradation, malondialdehyde released).
RESULT: 2.61 ± 0.38 μmol of MDA/mmol

QUERY: I have this compound here, O=C(CCc1ccc2c(c1O)C(=O)c1c(O)cccc1C2)NO , and I need its recorded DD (deoxyribose degradation, malondialdehyde released).
RESULT: 1.67 ± 0.31 μmol of MDA/mmol
